# test.target: S100B (Homo sapiens, UniProt P04271)
# Construct: made in house; host or cells: Escherichia coli BL21(DE3)
# Sequence (P04271 whole entry): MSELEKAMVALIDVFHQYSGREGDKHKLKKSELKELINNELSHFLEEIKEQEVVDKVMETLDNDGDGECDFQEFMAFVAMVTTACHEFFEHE
# experiment: Pull-down assay with immobilized protein and LSM libraries
# Format: binding
# test.conditions: H12 library; 1:1 binding assumed; read-out: Surface mapping KD (apparent)
pKd: −log10 of the molar value.
readout.type: pKd

[P] NC(=O)[C@H]1CCC[C@@H]1NC(=O)[C@H]1CCC[C@@H]1NC(=O)C[C@H](Cc1ccccc1)NC(=O)[C@H]1CCC[C@@H]1NC(=O)[C@H]1CCC[C@@H]1NC(=O)C[C@H](Cc1ccc(O)cc1)NC(=O)[C@H]1CCC[C@@H]1NC(=O)[C@H]1CCC[C@@H]1N [H12 YF]
[Q] CC(C)[C@@H](CC(=O)N[C@H]1CCC[C@@H]1C(=O)N[C@H]1CCC[C@@H]1C(=O)N[C@H](CC(=O)N[C@H]1CCC[C@@H]1C(=O)N[C@H]1CCC[C@@H]1C(N)=O)Cc1ccc(O)cc1)NC(=O)[C@H]1CCC[C@@H]1NC(=O)[C@H]1CCC[C@@H]1N [H12 VY]
Select one. Lower pKd: P or Q Identify your pick by its label.
Q

====

# test.target: S100A4 (Homo sapiens)
# Construct: made in house; host or cells: Escherichia coli BL21(DE3)
# Sequence (P26447 whole entry): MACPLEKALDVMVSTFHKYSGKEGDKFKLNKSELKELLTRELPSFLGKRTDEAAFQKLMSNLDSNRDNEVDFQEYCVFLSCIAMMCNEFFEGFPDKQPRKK
# experiment: Pull-down assay with immobilized protein and LSM libraries
# Assay type: binding
# test.conditions: H12 library; 1:1 binding assumed; read-out: Surface mapping KD (apparent)
readout.type: Kd (µM)

>  <compound>
CC[C@H](C)[C@@H](CC(=O)N[C@H]1CCC[C@@H]1C(=O)N[C@H]1CCC[C@@H]1C(N)=O)NC(=O)[C@H]1CCC[C@@H]1NC(=O)[C@H]1CCC[C@@H]1NC(=O)C[C@H](CC(=O)O)NC(=O)[C@H]1CCC[C@@H]1NC(=O)[C@H]1CCC[C@@H]1N [H12 DI]

>  <test.target>
S100A4 (Homo sapiens)

>  <readout.type>
Kd

>  <unit.tag>
µM

>  <recorded.result>
449

$$$$

[P] CC[C@H](C)[C@@H](CC(=O)N[C@H]1CCC[C@@H]1C(=O)N[C@H]1CCC[C@@H]1C(=O)N[C@@H](CCSC)CC(=O)N[C@H]1CCC[C@@H]1C(=O)N[C@H]1CCC[C@@H]1C(N)=O)NC(=O)[C@H]1CCC[C@@H]1NC(=O)[C@H]1CCC[C@@H]1N [H12 IM]
[Q] CC(C)C[C@@H](CC(=O)N[C@H]1CCC[C@@H]1C(=O)N[C@H]1CCC[C@@H]1C(N)=O)NC(=O)[C@H]1CCC[C@@H]1NC(=O)[C@H]1CCC[C@@H]1NC(=O)C[C@H](CCCCN)NC(=O)[C@H]1CCC[C@@H]1NC(=O)[C@H]1CCC[C@@H]1N [H12 KL]
[R] CC[C@H](C)[C@@H](CC(=O)N[C@H]1CCC[C@@H]1C(=O)N[C@H]1CCC[C@@H]1C(N)=O)NC(=O)[C@H]1CCC[C@@H]1NC(=O)[C@H]1CCC[C@@H]1NC(=O)C[C@H](Cc1c[nH]c2ccccc12)NC(=O)[C@H]1CCC[C@@H]1NC(=O)[C@H]1CCC[C@@H]1N [H12 WI]
Sort the 3 compounds by Kd; largest first, smallest last. Provide the labels, sequenced as the question asks.
P, R, Q
